Test system: SK-MEL-28 melanoma
Assay: NCI-60 one-dose screen, 48 h (100 = growth as untreated, 0 = no growth, -100 = all killed)
Conditions: 10 µM unless noted
The panel holds about 83,000 compounds, 20% with a hit somewhere; the sample as a whole holds those more often.

COMPOUND: C=CC[N+](C)(C)CCn1c2ccccc2c2nc3cc(C)c(C)cc3nc21
STUDY SYSTEM: SK-MEL-28 melanoma
growth (%): 79.6
--
COMPOUND: O=C(O)c1cccc(-c2ccc(/C=N/NC(=O)c3[nH]c4ccc(Br)cc4c3-c3ccccc3)s2)c1
STUDY SYSTEM: SK-MEL-28 melanoma
growth (%): 44.2
--
COMPOUND: N=C1N=C(SCc2nc3ccccc3[nH]2)NC(=O)/C1=C/c1ccc(Cl)cc1
STUDY SYSTEM: SK-MEL-28 melanoma
growth (%): 110
--
COMPOUND: COc1cc2oc(-c3cccc(NC(=O)[C@H](CC(N)=O)NC(=O)OC(C)(C)C)c3)cc(=O)c2c(OC)c1OC
STUDY SYSTEM: SK-MEL-28 melanoma
growth (%): 94
--
COMPOUND: COc1ccc(CCC2c3c(cc4c(c3OC)OCO4)CCN2C)cc1 (configuration not stated)
STUDY SYSTEM: SK-MEL-28 melanoma
growth (%): -98.3
--
COMPOUND: COc1cc(/C=C/C(=O)c2nnn(-c3ccc(Cl)cc3)c2C)cc(OC)c1OC
STUDY SYSTEM: SK-MEL-28 melanoma
growth (%): 46.9
--
COMPOUND: Cc1ccc(-n2c(-c3cc4ccccc4nc3Cl)noc2=O)cc1
STUDY SYSTEM: SK-MEL-28 melanoma
growth (%): 97.1
--
COMPOUND: Cc1ccc(C(=O)CSc2nc3ccc(F)cc3c(=O)n2-c2ccc(Cl)cc2)cc1
STUDY SYSTEM: SK-MEL-28 melanoma
growth (%): 77.2
--
COMPOUND: CCN(CC)CCOc1ccc(Nc2ncc3cc(-c4ccc(O)c(C#N)c4)c(=O)n(C)c3n2)cc1
STUDY SYSTEM: SK-MEL-28 melanoma
growth (%): 79.8
--
COMPOUND: COc1cc(-c2cc(-c3cccc(OCC(=O)O)c3)[nH]c(=O)c2C#N)cc(OC)c1OC
STUDY SYSTEM: SK-MEL-28 melanoma
growth (%): 102
--
COMPOUND: CC(C)C(C(=O)O)n1c(O)c(/C=C2/C=c3cc4c(cc3=NC2=O)OCO4)sc1=S (configuration not stated)
STUDY SYSTEM: SK-MEL-28 melanoma
growth (%): 110
--
COMPOUND: O=C(NNc1nc2cc(C(F)(F)F)ccc2n2cccc12)c1cnccn1
STUDY SYSTEM: SK-MEL-28 melanoma
growth (%): -36.8
--
COMPOUND: O=C1C(=Nc2ccc(F)c(Cl)c2)c2cccc3cccc1c23
STUDY SYSTEM: SK-MEL-28 melanoma
growth (%): 57.9
--
COMPOUND: N/N=C(\N)c1c(N)nc(=S)[nH]c1-c1ccc(Cl)cc1Cl
STUDY SYSTEM: SK-MEL-28 melanoma
growth (%): 116
--
COMPOUND: COC(=O)/C=C/c1cccc2c1C(=O)NC(C)(c1cc3cc4ccccc4cc3oc1=O)N2 (configuration not stated)
STUDY SYSTEM: SK-MEL-28 melanoma
growth (%): 58
--
COMPOUND: COc1cc(C2CC(c3cc(OC)c(OC)c(OC)c3)=NN2C(C)=O)ccc1OCc1ccc(F)cc1 (configuration not stated)
STUDY SYSTEM: SK-MEL-28 melanoma
growth (%): 73.2
--
COMPOUND: Cc1ccc([C@H]2C(C(=O)c3ccc(Cl)cc3)C3(N[C@@H]2c2ccccc2)C(=O)Nc2ccc(Br)cc23)cc1 (some centres not stated)
STUDY SYSTEM: SK-MEL-28 melanoma
growth (%): 77.9
--
COMPOUND: COc1ccc(-c2nc3cc(C)ccc3n2CC(=O)N=Nc2c(O)[nH]c3ccc(Cl)cc23)cc1
STUDY SYSTEM: SK-MEL-28 melanoma
growth (%): -67.6
--
COMPOUND: CCCCSc1nc(NCCc2c[nH]c3ccccc23)c(C#N)c(-c2ccc(F)cc2)n1
STUDY SYSTEM: SK-MEL-28 melanoma
growth (%): 81.4
--
COMPOUND: Cn1cc(-c2cc(N)n3nc(-c4cn(C)c5ncccc45)cc3n2)c2cccnc21
STUDY SYSTEM: SK-MEL-28 melanoma
growth (%): 106
--
COMPOUND: COc1ccc(C2=NN(C(C)=O)C(c3ccc(OCc4ccc(Cl)cc4)c(OC)c3)C2)cc1OC (configuration not stated)
STUDY SYSTEM: SK-MEL-28 melanoma
growth (%): 56.8
--
COMPOUND: COc1ccc(C(=O)/C=C/c2cccc(Cl)c2)cc1S(N)(=O)=O
STUDY SYSTEM: SK-MEL-28 melanoma
growth (%): -25.7
--
COMPOUND: O=C(Cn1c(/C=C/c2ccccc2)nc2ccccc2c1=O)Nc1ccc(Cl)cc1
STUDY SYSTEM: SK-MEL-28 melanoma
growth (%): 108
--
COMPOUND: O=C(NN1C(=O)/C(=C/C=C/c2ccc([N+](=O)[O-])o2)SC1=S)c1ccc(Cl)cc1
STUDY SYSTEM: SK-MEL-28 melanoma
growth (%): -99.7
--
COMPOUND: O=C(Nc1ccccc1)N1CCN(c2cc(-c3cn(-c4ccccc4)nc3-c3cccc(O)c3)ccn2)CC1
STUDY SYSTEM: SK-MEL-28 melanoma
growth (%): 73.2
--
COMPOUND: O=c1c2ccccc2nc(-c2ccccc2)n1/N=C/c1ccc2ccccc2c1
STUDY SYSTEM: SK-MEL-28 melanoma
growth (%): 61.7
--
COMPOUND: O=C(N1c2ccccc2Sc2ccccc21)n1ccc2cccnc21
STUDY SYSTEM: SK-MEL-28 melanoma
growth (%): 76.9
--
COMPOUND: CN(C)c1ccnc(NCCCSC(c2ccccc2)(c2ccccc2)c2ccccc2)c1
STUDY SYSTEM: SK-MEL-28 melanoma
growth (%): -77.3
--
COMPOUND: Cc1ccc(S(=O)(=O)c2nc(S(=O)(=O)c3ccc(C)cc3)c(N3CCN(C)CC3)s2)cc1
STUDY SYSTEM: SK-MEL-28 melanoma
growth (%): 68.8
--
COMPOUND: C#CCOc1ccc(/C=N/Nc2nc(-c3cc4cc(Br)ccc4oc3=O)cs2)cc1OC
STUDY SYSTEM: SK-MEL-28 melanoma
growth (%): 78.2
--
COMPOUND: Cc1cc2c(cc1Cl)C(=O)/C(=C/c1ccccc1)O2
STUDY SYSTEM: SK-MEL-28 melanoma
growth (%): 49.9
--
COMPOUND: CC1CN(c2oc(-c3ccc([N+](=O)[O-])cc3)nc2C#N)CC(C)O1 (configuration not stated)
STUDY SYSTEM: SK-MEL-28 melanoma
growth (%): 105
--
COMPOUND: CC(=O)OC[C@@]1(C)C2CC[C@]3(C)C(CC=C4C5CC(C)(C)CC[C@]5(C(=O)Nc5ccc(C)cc5)CC[C@]43C)[C@@]2(C)C[C@@H](OC(C)=O)[C@@H]1OC(C)=O (some centres not stated)
STUDY SYSTEM: SK-MEL-28 melanoma
growth (%): 77.1
--
COMPOUND: CC(=O)OCC1OC(OC2C(COC(C)=O)OC(n3cc(COc4ccc5ccc(=O)oc5c4)nn3)C(OC(C)=O)C2OC(C)=O)C(OC(C)=O)C(OC(C)=O)C1OC(C)=O (configuration not stated)
STUDY SYSTEM: SK-MEL-28 melanoma
growth (%): 109
--
COMPOUND: CNC(=O)c1cc(Oc2ccc3nc(NC(=O)Nc4cccc(OC(F)(F)F)c4)sc3c2)ccn1
STUDY SYSTEM: SK-MEL-28 melanoma
growth (%): 31.9
--
COMPOUND: CSc1ccc(NC(=O)c2ccc3nn(/C(C#N)=C/c4ccccn4)nc3c2)cc1
STUDY SYSTEM: SK-MEL-28 melanoma
growth (%): -98.4
--
COMPOUND: COc1cccc(-c2c(C#N)c(-c3ccc(Cl)cc3)nc3n[nH]c(-c4ccc(Cl)cc4)c23)c1
STUDY SYSTEM: SK-MEL-28 melanoma
growth (%): 73.6
